# runDescription: Inhibition of leucine aminopeptidase B (unknown origin) using 0.2 mM L-leucine-beta-naphthylamide
# Set-up: species or system Homo sapiens
parameterMeasured: IC50

Q: Dear colleague, I am looking for the recorded IC50 of the following molecule: `CC(C)C[C@H](NC(=O)[C@H](O)[C@H](N)Cc1ccccc1)C(=O)O`
Result: 7.5 µg/mL

Q: Dear colleague, I am looking for the recorded IC50 of the following molecule: `CC(C)C[C@H](NC(=O)[C@@H](O)[C@@H](N)Cc1ccccc1)C(=O)O`
Result: 0.07 µg/mL

Q: Dear colleague, I am looking for the recorded IC50 of the following molecule: `CC(C)C[C@H](NC(=O)[C@H](O)[C@@H](N)Cc1ccccc1)C(=O)O`
Result: > 250 µg/mL

Q: Dear colleague, I am looking for the recorded IC50 of the following molecule: `CC(C)C[C@@H](NC(=O)[C@H](O)[C@@H](N)Cc1ccccc1)C(=O)O`
Result: > 250 µg/mL

Q: Dear colleague, I am looking for the recorded IC50 of the following molecule: `CC(C)C[C@@H](NC(=O)[C@H](O)[C@H](N)Cc1ccccc1)C(=O)O`
Result: > 250 µg/mL

Q: Dear colleague, I am looking for the recorded IC50 of the following molecule: `CC(C)C[C@@H](NC(=O)[C@@H](O)[C@@H](N)Cc1ccccc1)C(=O)O`
Result: 2.7 µg/mL

Q: Dear colleague, I am looking for the recorded IC50 of the following molecule: `CC(C)C[C@H](NC(=O)[C@@H](O)[C@H](N)Cc1ccccc1)C(=O)O`
Result: 0.01 µg/mL

Q: Dear colleague, I am looking for the recorded IC50 of the following molecule: `CC(C)C[C@@H](NC(=O)[C@@H](O)[C@H](N)Cc1ccccc1)C(=O)O`
Result: 3.4 µg/mL

###

# runDescription: Retardation factor, Rf value of the compound using BuOH-AcOH-H20 at 4:1:1 ratio by ninhydrin
# Type: physicochemical
Measured Rf values are reported for all entries that follow.
Reply with the value as a number alone.

Study these solved cases before continuing.
1) CC(C)C[C@@H](NC(=O)[C@@H](O)[C@@H](N)Cc1ccccc1)C(=O)O; 0.52
2) N[C@H](Cc1ccccc1)[C@H](O)C(=O)NCCC(=O)O; 0.34
3) CCCCCCC(NC(=O)[C@@H](O)[C@H](N)Cc1ccccc1)C(=O)O (mixture of isomers); 0.58
4) CCC[C@H](NC(=O)[C@@H](O)[C@H](N)Cc1ccccc1)C(=O)O; 0.41
5) NCCCC[C@H](NC(=O)[C@@H](O)[C@H](N)Cc1ccccc1)C(=O)O; 0.06

Q: Dear colleague, I am looking for the recorded Rf of the following compound: `NC(=O)CC[C@H](NC(=O)[C@@H](O)[C@H](N)Cc1ccccc1)C(=O)O`
Result: 0.17

Q: Dear colleague, I am looking for the recorded Rf of the following compound: `CSCC[C@H](NC(=O)[C@@H](O)[C@H](N)Cc1ccccc1)C(=O)O`
Result: 0.37

Q: Dear colleague, I am looking for the recorded Rf of the following compound: `Cc1ccc(C[C@@H](N)[C@H](O)C(=O)N[C@@H](CC(C)C)C(=O)O)cc1`
Result: 0.58

Q: Dear colleague, I am looking for the recorded Rf of the following compound: `N[C@H](Cc1ccccc1)[C@H](O)C(=O)NCC(=O)O`
Result: 0.26

Q: Dear colleague, I am looking for the recorded Rf of the following compound: `N[C@H](Cc1ccccc1)[C@H](O)C(=O)N[C@@H](Cc1ccccc1)C(=O)O`
Result: 0.44

Q: Dear colleague, I am looking for the recorded Rf of the following compound: `CC(C)C[C@H](NC(=O)[C@@H](O)[C@H](N)c1ccccc1)C(=O)O`
Result: 0.41

Q: Dear colleague, I am looking for the recorded Rf of the following compound: `N[C@H](Cc1ccccc1)[C@H](O)C(=O)NCCCC(=O)O`
Result: 0.35

Q: Dear colleague, I am looking for the recorded Rf of the following compound: `CC[C@H](C)[C@H](NC(=O)[C@@H](O)[C@H](N)Cc1ccccc1)C(=O)O`
Result: 0.48

###

Measured Rf values are reported for all entries that follow.
# runDescription: Retardation factor, Rf value of the compound using BuOH-AcOH-H20 at 4:1:1 ratio by ninhydrin
# Format: physicochemical
Reply with the value as a number alone.

Study these solved cases before continuing.
1) CC(C)C[C@H](NC(=O)[C@@H](O)[C@H](N)Cc1ccc(Cl)cc1)C(=O)O; 0.52
2) CC(C)C[C@H](NC(=O)C(O)C(N)Cc1ccccc1Cl)C(=O)O (mixture of isomers); 0.46
3) CC(C)C[C@H](NC(=O)[C@H](O)[C@H](N)Cc1ccc(Cl)cc1)C(=O)O; 0.42
4) CC(C)C[C@H](NC(=O)[C@@H](O)[C@@H](N)Cc1ccccc1)C(=O)O; 0.37

Consider the record given below.
Q: Dear colleague, I am looking for the recorded Rf of the following compound: `N[C@H](Cc1ccccc1)[C@H](O)C(=O)N1CCC[C@H]1C(=O)O`
Result: 0.25

###

# runDescription: Retardation factor, Rf value of the compound using BuOH-AcOH-H20 at 4:1:1 ratio by ninhydrin
# Format: physicochemical
Label Condition met when Rf is at or above 0.4; anything below gets Condition not met.

Q: State whether the measured Rf reaches 0.4, counting equality as reaching it, for `CC(C)CCNC(=O)[C@@H](O)[C@H](N)Cc1ccccc1.Cl`
Result: Condition met

###

Measured Rf values are reported for all entries that follow.
# runDescription: Retardation factor, Rf value of the compound using BuOH-AcOH-H20 at 4:1:1 ratio by ninhydrin
# Type: physicochemical
Reply with the value as a number alone.

1. CC(C)C[C@H](NC(=O)[C@@H](O)[C@H](N)Cc1ccc([N+](=O)[O-])cc1)C(=O)O; 0.58

Consider the record given below.
Q: Dear colleague, I am looking for the recorded Rf of the following compound: `CC(C)C[C@H](NC(=O)[C@H](O)CN)C(=O)O`
Result: 0.13

###

# systemUnderTest: Aminopeptidase B (Rattus norvegicus, UniProt O09175)
# Sequence (O09175 whole entry): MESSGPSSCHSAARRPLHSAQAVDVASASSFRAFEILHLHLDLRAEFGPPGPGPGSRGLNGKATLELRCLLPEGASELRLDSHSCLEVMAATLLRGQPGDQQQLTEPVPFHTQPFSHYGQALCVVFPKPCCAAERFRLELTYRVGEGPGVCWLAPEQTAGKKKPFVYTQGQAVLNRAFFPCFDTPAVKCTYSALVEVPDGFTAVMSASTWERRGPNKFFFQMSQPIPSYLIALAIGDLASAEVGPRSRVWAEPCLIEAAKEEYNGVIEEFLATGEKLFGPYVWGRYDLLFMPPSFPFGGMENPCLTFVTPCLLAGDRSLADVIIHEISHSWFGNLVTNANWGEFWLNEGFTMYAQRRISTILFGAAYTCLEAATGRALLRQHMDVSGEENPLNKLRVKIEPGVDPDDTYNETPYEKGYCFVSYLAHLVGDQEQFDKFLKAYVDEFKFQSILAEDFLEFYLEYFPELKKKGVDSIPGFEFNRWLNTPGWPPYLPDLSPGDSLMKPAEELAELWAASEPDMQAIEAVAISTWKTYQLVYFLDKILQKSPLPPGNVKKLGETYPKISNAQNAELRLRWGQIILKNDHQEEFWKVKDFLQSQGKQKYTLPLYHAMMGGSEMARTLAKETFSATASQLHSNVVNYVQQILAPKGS
parameterMeasured: log10 IC50 (log10 of the value in µM)
Note the log scale: values are log10 of IC50 expressed in µM.

Study these solved cases before continuing.
1) CC(C)C[C@H](NC(=O)[C@@H](O)[C@H](N)Cc1ccccc1)C(=O)NCC(=O)O; 1.97
2) CC(C)C[C@H](NC(=O)[C@H](O)[C@H](N)Cc1ccccc1)C(=O)O; 2.51
3) CC(C)C[C@H](NC(=O)[C@@H](O)CN)C(=O)O; 2.81
4) N[C@H](Cc1ccccc1)[C@H](O)C(=O)NCCC(=O)O; 2.15
5) CC(C)C[C@H](NC(=O)[C@@H](O)[C@H](N)Cc1ccccc1)C(=O)O [UBENIMEX]; -0.79

Q: Dear colleague, I am looking for the recorded log10 IC50 of the following compound: `N[C@H](Cc1ccccc1)[C@H](O)C(=O)NCCCCCC(=O)O`
Result: 2.55

Q: Dear colleague, I am looking for the recorded log10 IC50 of the following compound: `N[C@H](Cc1ccccc1)[C@H](O)C(=O)NCCCC(=O)O`
Result: 2.59

###

Measured Rf values are reported for all entries that follow.
# runDescription: Retardation factor, Rf value of the compound using BuOH-AcOH-H20 at 4:1:1 ratio by ninhydrin
# Format: physicochemical
Reply with the value as a number alone.

Study these solved cases before continuing.
1) N[C@H](Cc1ccccc1)[C@H](O)C(=O)NCCCCCC(=O)O; 0.48
2) CC(C)C[C@H](NC(=O)[C@H](O)[C@@H](N)Cc1ccccc1)C(=O)O; 0.49
3) CC(C)[C@H](NC(=O)[C@@H](O)[C@H](N)Cc1ccccc1)C(=O)O; 0.42
4) CC(C)C[C@H](NC(=O)[C@H](O)[C@H](N)CC(C)C)C(=O)O; 0.43

Q: Dear colleague, I am looking for the recorded Rf of the following molecule: CC(C)C[C@H](NC(=O)[C@@H](O)[C@H](N)Cc1ccccc1)C(=O)O [UBENIMEX]
Result: 0.48
